target: HDAC1 (Homo sapiens); construct: purchased BPS Bioscience 50051; test: HDAC1 in vitro deacetylation assay (ZMAL); assay type: biochemical; settings: deacetylation, mean ± SD
Sequence (Q13547 whole entry): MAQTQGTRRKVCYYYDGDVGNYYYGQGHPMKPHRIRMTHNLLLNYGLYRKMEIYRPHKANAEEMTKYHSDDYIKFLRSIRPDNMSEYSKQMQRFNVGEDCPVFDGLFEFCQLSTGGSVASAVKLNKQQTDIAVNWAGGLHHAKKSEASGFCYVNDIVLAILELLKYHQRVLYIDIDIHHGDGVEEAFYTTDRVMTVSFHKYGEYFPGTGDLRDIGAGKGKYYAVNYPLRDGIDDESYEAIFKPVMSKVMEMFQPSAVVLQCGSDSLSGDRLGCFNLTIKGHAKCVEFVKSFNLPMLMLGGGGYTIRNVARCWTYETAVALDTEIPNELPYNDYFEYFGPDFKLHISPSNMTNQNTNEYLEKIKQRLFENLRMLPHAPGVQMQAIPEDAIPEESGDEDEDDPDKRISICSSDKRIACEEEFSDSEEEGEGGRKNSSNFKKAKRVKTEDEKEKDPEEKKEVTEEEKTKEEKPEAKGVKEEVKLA
pIC50: −log10 of the molar value.
# pIC50 >= 6 gives Met, anything below gives Not met

molecule	target system	label
CC(=O)NCc1ccc(C(=O)NO)cc1 [Compound 55, 4-(Acetamidomethyl)-N-hydroxybenzamide]	HDAC1 (Homo sapiens)	Not met
CCCCN(Cc1ccc(C(=O)NO)cc1)C(=O)CCCCn1cc(COc2cccc(Cc3cnc(NC(=O)CSc4nc(C)cc(C)n4)s3)c2)nn1	HDAC1 (Homo sapiens)	Not met
Cc1cc(C)nc(SCC(=O)Nc2ncc(Cc3cccc(OCc4cn(CCOCCOCCOCCOCCC(=O)Nc5ccc(C(=O)NCCCCCCC(=O)NO)cc5)nn4)c3)s2)n1	HDAC1 (Homo sapiens)	Met
Cc1cc(C)nc(SCC(=O)Nc2ncc(Cc3cccc(OCc4cn(CCOCCOCCOCCOCCOCCOCCOCCOCCOCCOCCC(=O)Nc5ccc(C(=O)NCc6ccc(C(=O)NO)cc6)cc5)nn4)c3)s2)n1	HDAC1 (Homo sapiens)	Met

----------
Parameter pEC50: see the listing below.
tested on: PC-3M-luc prostate cancer cells; test: Cell viability assay (MTS) PC-3M-luc; assay type: cell-based; conditions: PC-3M-luc, read-out: PC-3M-luc cell viability EC50; 72 h, MTS, mean ± SD
pEC50: −log10 of the molar value.
measured property: pEC50

In [3]: df
Out[3]:
                           smiles_structure  value_reported
0        CCCCC(=O)N(CCCC)Cc1ccc(C(=O)NO)cc1            4.52
1  CCCCN(Cc1ccc(C(=O)NO)cc1)C(=O)CCCCn1cc(COc2cccc(Cc3cnc(NC(=O)CSc4nc(C)cc(C)n4)s3)c2)nn1            4.52

----------
biological target: HDAC8 (Homo sapiens)
Sequence (Q9BY41 whole entry, species assumed): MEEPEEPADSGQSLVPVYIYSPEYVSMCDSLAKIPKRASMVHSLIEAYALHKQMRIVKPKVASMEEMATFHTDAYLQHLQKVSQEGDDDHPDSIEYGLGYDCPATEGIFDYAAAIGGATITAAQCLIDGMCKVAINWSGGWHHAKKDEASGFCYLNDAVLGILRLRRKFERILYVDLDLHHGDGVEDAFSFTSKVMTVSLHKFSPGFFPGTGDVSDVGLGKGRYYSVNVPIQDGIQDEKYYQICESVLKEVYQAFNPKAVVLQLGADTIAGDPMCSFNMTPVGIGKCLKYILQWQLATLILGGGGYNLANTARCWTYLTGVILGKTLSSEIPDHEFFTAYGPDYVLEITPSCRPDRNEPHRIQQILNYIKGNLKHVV
measured property: IC50

>>> print(df.to_string())
                           smiles_structure  measured_property  value_reported
0  CCCCN(Cc1ccc(C(=O)NO)cc1)C(=O)CCCCn1cc(COc2cccc(Cc3cnc(NC(=O)CSc4nc(C)cc(C)n4)s3)c2)nn1               IC50         2940 nM

----------
target: HDAC3/NcoR2 (Homo sapiens, UniProt O15379); assay: HDAC3 in vitro deacetylation assay (ZMAL); conditions: mean ± SD
Sequence (O15379 whole entry): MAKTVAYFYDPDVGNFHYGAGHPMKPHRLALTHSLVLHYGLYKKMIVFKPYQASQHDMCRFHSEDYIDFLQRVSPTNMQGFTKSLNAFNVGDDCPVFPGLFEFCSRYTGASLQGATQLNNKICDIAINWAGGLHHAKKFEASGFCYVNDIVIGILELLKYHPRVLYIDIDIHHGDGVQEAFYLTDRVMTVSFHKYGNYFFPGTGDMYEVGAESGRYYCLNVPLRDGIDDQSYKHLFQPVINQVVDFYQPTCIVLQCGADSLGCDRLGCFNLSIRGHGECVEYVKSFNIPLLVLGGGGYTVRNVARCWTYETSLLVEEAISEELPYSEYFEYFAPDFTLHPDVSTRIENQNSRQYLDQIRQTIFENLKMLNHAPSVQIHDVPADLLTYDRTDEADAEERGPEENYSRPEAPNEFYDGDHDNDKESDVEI
Sequence (Q9Y618 395-489 partner limits assumed): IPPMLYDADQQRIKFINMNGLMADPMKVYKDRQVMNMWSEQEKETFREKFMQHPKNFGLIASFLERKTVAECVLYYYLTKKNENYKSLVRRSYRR
measured property: IC50 (µM)

                                   compound  value_reported
0  Cc1cc(C)nc(SCC(=O)Nc2ncc(Cc3cccc(OCc4cn(CCOCCOCCOCCOCCC(=O)Nc5ccc(C(=O)NCCCCCCC(=O)NO)cc5)nn4)c3)s2)n1 [Compound 46]            0.14
1  CCCCN(Cc1ccc(C(=O)NO)cc1)C(=O)CCCCn1cc(COc2cccc(Cc3cnc(NC(=O)CSc4nc(C)cc(C)n4)s3)c2)nn1 [Compound 33]             2.5

----------
molecular target: HDAC2 (Homo sapiens); construct: purchased BPS Bioscience 50052; assay: HDAC2 in vitro deacetylation assay (ZMAL); type: biochemical; settings: mean ± SD
Sequence (Q92769 whole entry): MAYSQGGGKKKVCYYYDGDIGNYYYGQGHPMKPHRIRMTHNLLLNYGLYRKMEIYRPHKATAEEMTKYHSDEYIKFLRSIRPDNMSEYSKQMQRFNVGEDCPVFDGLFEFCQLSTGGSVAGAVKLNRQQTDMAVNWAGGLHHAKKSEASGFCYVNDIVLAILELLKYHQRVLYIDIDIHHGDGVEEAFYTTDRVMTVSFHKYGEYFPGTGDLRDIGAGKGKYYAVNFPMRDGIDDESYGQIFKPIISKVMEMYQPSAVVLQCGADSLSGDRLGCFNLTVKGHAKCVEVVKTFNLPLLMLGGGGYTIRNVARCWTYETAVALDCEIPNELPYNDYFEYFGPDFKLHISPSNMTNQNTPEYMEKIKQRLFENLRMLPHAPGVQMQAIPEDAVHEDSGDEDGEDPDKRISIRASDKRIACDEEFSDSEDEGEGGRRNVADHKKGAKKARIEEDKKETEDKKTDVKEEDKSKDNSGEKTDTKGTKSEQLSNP
measured property: IC50 (µM)

                           smiles_structure  measured_property  value_reported
0  CCCCN(Cc1ccc(C(=O)NO)cc1)C(=O)CCCCn1cc(COc2cccc(Cc3cnc(NC(=O)CSc4nc(C)cc(C)n4)s3)c2)nn1               IC50               6

----------
biological target: Sirt5 (Homo sapiens, UniProt Q9NXA8)
Sequence (Q9NXA8 37-310): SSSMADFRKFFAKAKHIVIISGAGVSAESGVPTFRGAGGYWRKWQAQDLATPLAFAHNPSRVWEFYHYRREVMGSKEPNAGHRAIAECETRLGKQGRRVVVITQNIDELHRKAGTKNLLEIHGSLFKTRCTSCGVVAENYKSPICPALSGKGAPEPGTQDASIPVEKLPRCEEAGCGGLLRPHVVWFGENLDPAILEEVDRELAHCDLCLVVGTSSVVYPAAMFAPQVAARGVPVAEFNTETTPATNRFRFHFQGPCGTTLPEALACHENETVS
pIC50: −log10 of the molar value.
measured property: pIC50

>>> print(df.to_string())
                           smiles_structure  value_reported
0  CCCCN(Cc1ccc(C(=O)NO)cc1)C(=O)CCCCn1cc(COc2cccc(Cc3cnc(NC(=O)CSc4nc(C)cc(C)n4)s3)c2)nn1          < 3.30

----------
target: Sirt2 (Homo sapiens, UniProt Q8IXJ6); construct: the respective sirtuin (Sirt1_134–747, Sirt2_56–356, or Sirt3_118–395) was mixed with; made in house; host or cells: Escherichia coli BL21 Star (DE3); assay: Sirt2 in vitro deacetylation assay (ZMAL, trypsin-based fluorescence); type: biochemical; details: deacetylation, mean ± SD
Sequence (Q8IXJ6 56-356): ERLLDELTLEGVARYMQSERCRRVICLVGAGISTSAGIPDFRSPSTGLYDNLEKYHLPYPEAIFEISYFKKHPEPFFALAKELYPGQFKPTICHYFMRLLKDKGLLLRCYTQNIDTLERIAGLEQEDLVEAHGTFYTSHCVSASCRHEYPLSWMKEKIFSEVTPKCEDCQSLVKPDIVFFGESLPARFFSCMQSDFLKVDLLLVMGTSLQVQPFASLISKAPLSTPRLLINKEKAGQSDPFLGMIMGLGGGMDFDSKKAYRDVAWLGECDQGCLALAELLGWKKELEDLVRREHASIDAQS
pIC50: −log10 of the molar value.
Parameter pIC50: see the listing below.

molecule	pIC50
CCCCN(Cc1ccc(C(=O)NO)cc1)C(=O)CCCCn1cc(COc2cccc(Cc3cnc(NC(=O)CSc4nc(C)cc(C)n4)s3)c2)nn1	6.49
Cc1cc(C)nc(SCC(=O)Nc2ncc(Cc3cccc(OCc4cn(CCOCCOCCOCCOCCC(=O)Nc5ccc(C(=O)NCCCCCCC(=O)NO)cc5)nn4)c3)s2)n1	6.32
Cc1cc(C)nc(SCC(=O)Nc2ncc(Cc3cccc(OCc4cn(CCOCCOCCOCCOCCC(=O)Nc5ccc(C(=O)NCc6ccc(C(=O)NO)cc6)cc5)nn4)c3)s2)n1	6.32
Cc1cc(C)nc(SCC(=O)Nc2ncc(Cc3cccc(OCc4cn(CCOCCOCCOCCOCCOCCOCCOCCOCCOCCOCCC(=O)Nc5ccc(C(=O)NCc6ccc(C(=O)NO)cc6)cc5)nn4)c3)s2)n1	6.27
Cc1cc(C)nc(SCC(=O)Nc2ncc(Cc3cccc(OCc4cn(Cc5ccccc5)nn4)c3)s2)n1 [Compound 4, SirReal1.1, reference compound]	6.66

The measurements presented in this section are drawn from paper PMC10641818.
